molecular target: T1, Dimeric Human Ang-2FD conjugated to human IgG1 (human); assay: competition ELISA, 16.67 nM Ab, coated hTie-2-mFc
T1 construct: also called Human Ang-2FD-hFc; hAng-2FD-hFc
# Percent Blocking of Ang-2FD Binding to Tie-2 per record follows
Respond numerically; units are % and should not be typed.

# annotated cases, reported Percent Blocking of Ang-2FD Binding to Tie-2 shown
{"columns": ["BINDER", "VALUE"],
 "data": [
  ["H1M724N (antibody, V domains shown) VH: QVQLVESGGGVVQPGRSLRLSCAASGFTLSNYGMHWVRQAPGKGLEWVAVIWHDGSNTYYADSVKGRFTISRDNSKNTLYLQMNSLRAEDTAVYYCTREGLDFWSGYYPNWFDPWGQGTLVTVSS VL: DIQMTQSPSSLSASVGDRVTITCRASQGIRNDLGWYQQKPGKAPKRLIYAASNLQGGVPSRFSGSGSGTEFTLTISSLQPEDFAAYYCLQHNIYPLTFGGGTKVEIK", 99.5],
  ["H1M728N (antibody, V domains shown) VH: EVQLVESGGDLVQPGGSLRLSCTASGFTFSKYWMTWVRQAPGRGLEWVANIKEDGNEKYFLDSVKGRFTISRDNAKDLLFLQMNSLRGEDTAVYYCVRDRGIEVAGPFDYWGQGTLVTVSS VL: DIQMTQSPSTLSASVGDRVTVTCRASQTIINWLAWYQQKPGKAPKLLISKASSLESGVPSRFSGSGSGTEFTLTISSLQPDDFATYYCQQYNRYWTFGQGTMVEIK", 98.5]
]}

Query: Fill blank: measured Percent Blocking of Ang-2FD Binding to Tie-2 of the binder H2M742N (antibody, V domains shown) VH: DVQLLESGGDLVQPGGSLRLSCEASGFTFRNYVMIWVRQAPGKGLEWVSGISNSGGTTHYTDSVKGRFTISRDNSKNTLYLQINSLRAEDTAVYYCAKGYLDTSLIEGNWFDPWGQGTLVTVSS VL: NIVMTQSPLSLPVTPGEPASISCRSSQSLLHSNGFNYLNWFLQKPGQSPQLLIYLGSNRASGVPDKFSGSGSGTDFTLNINRVEAEDVGIYFCMQTLQTPLTFGGGTKVEIK is ____.
Result: 99.6

Query: Do the same for H2M730N (antibody, V domains shown) VH: EVQLVESGGGLVQPGGSLRLSCAASGFAFRSYWMTWVRQAPGKGLEWVANIQQDGNDKYYVDSVKGRFTISRDNAKNSLYLQMNSLRAEDTAVYYCARDTGIAEAGPFDYWGQGTLVTVSS VL: DIQMTQSPSTLSASVGDRVSITCRASQTIISWLAWYQQKPGKAPRLLIYKASSLESGVPSRFSGSGSGTEFTLTINSLQPDDFATYYCQQYNRYWTFGQGTKVEIK please
Result: 98.9
